- Tested target: hKOR (Homo sapiens, UniProt P41145)
- Sequence (P41145 whole entry): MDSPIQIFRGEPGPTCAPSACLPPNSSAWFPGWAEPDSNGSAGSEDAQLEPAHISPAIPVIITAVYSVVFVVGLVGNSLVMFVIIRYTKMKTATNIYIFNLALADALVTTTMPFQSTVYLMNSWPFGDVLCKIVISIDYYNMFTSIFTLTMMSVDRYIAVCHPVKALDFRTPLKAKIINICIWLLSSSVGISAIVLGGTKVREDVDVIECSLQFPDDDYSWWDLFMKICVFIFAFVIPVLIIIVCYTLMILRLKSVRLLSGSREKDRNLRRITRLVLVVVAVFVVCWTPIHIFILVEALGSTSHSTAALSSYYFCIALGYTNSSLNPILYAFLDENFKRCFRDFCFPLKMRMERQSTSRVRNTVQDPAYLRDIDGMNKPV
- Measurement description: Receptor binding with [3H]diprenorphine at hKOR
- Cond: PZM analogs; (n) = number of independent experiments; read-out: binding affinity Ki hKOR
So I've got a bunch of molecules here, and I need their pKi values.
The read-out pKi is expressed as -log10 of concentration in moles per litre.

stdin: For CN(CCc1ccccc1)C(=O)NC[C@H](Cc1ccc(O)cc1)N(C)C [drawing 504] , what is its reported pKi?
stdout: 6.80

stdin: Lookup CN(C)[C@H](CNC(=S)NCCc1ccsc1)Cc1ccc(O)cc1 [drawing 501]
stdout: 7.07

stdin: Also check CC(C)N(C[C@H](Cc1ccc(O)cc1)N(C)C)C(=O)N[C@@H](C)c1cccc2ccccc12
stdout: 6.04

stdin: Same question for CN(C)[C@H](CNC(=O)CCCc1ccccc1)Cc1ccc(O)cc1 please.
stdout: 7.00

stdin: Continue with CN(C)[C@@H](CNC(=O)NC(C)(C)Cc1ccsc1)Cc1ccccc1
stdout: 6.02

stdin: # repeat for C[C@@H](Cc1ccsc1)NC(=O)NC[C@H](Cc1ccnc(O)c1)N(C)C
stdout: 5.92

stdin: Thanks! And CN(C)[C@H](CNC(=O)NCCCCN1C(=O)C=CC1=O)Cc1ccc(O)cc1 ?
stdout: 6.12

* * *

- Tested target: humanDOR (Homo sapiens, UniProt P41143)
- Sequence (P41143 whole entry): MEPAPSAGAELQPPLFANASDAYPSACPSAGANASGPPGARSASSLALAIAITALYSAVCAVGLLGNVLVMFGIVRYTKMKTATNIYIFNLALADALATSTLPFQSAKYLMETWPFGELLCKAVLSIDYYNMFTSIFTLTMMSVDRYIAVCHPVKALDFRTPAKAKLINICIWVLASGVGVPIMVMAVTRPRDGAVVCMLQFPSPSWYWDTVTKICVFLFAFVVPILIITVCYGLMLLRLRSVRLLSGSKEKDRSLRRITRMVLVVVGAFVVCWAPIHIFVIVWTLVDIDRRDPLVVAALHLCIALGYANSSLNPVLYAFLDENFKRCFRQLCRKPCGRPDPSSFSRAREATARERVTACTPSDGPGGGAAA
- Measurement description: Receptor binding with [3H]diprenorphine at human DOR
- Cond: PZM analogs; (n) = number of independent experiments; read-out: binding affinity Ki hDOR
Metric name: Ki (nM)
Reply numerically in nM, unit not repeated.

stdin: Suppose we examine the compound C[C@@H](CN1C(=O)C=CC1=O)NC(=O)NC[C@H](Cc1ccc(O)cc1)N(C)C ; what Ki value has been reported?
stdout: 860

stdin: Ok, now C[C@@H](Cc1ccsc1)NC(=O)NCC(Cc1ccc(O)cc1)N(C)Cc1ccccc1 (stereo partly shown)
stdout: 720

stdin: Thanks! And CN(C)[C@H](CNC(=O)NC(C)(C)Cc1ccccc1)Cc1ccc(O)cc1 [drawing 530] ?
stdout: 920

stdin: Likewise for CN(C)[C@@H](CNC(=O)NC(C)(C)Cc1ccccc1)Cc1ccccc1 ?
stdout: 1000

Ref: patent US20200109126A1
